- TESTED_SYSTEM: PKC delta kinase (Homo sapiens)
- ASSAY: PKC delta kinase inhibition, coupled-enzyme (NADH absorbance) assay, Ki
- Format: biochemical
- MEASUREMENT_CONTEXT: 150 μM ATP, 46 nM PKC delta kinase, 30° C.; read-out: Ki PKC delta
Kindly supply the reported Ki values for the records listed here.

Here is how some compounds turned out for Ki.
>>> readout_value("CC(C)(C)C[C@H]1CN(c2cccc(-c3n[nH]c4ncccc34)n2)CCN1")
"< 50 nM"
>>> readout_value("CC(C)CC1CN(c2ccc(C(F)(F)F)c(-c3n[nH]c4ncccc34)n2)CCC1CN (stereo not shown)")
"> 1250 nM"

I have 8 compounds here; please give me Ki for each one.
1. CC(C)C[C@@H]1C[C@H](N)CN(c2ccc(C(F)(F)F)c(-c3n[nH]c4ncccc34)n2)C1
2. CC(C)C[C@@]1(O)CN(c2ccc(C(F)(F)F)c(-c3n[nH]c4ncccc34)n2)CC[C@H]1N
3. FC(F)(F)c1ccc(N2CCNC(C(F)(F)F)C2)nc1-c1n[nH]c2ncccc12 (stereo not shown)
4. NCC1CN(c2ccc(F)c(-c3n[nH]c4ncccc34)n2)CCC1O (stereo not shown) [Compound 296]
5. NC1CCN(c2ccc(C(F)(F)F)c(-c3n[nH]c4ncccc34)n2)CC12CCCCC2 (stereo not shown)
6. N#CC1(c2cccc(-c3n[nH]c4ncccc34)n2)CCNCC1
7. CC(C)C[C@@H]1CN(c2cccc(-c3n[nH]c4ncc(F)cc34)n2)CCN1
8. CC(C)(C)C(N)C1CCN(c2ccc(F)c(-c3n[nH]c4ncccc34)n2)C1 (stereo not shown) [Compound 421]

1. > 1250 nM
2. < 500 nM
3. > 2000 nM
4. < 2800 nM
5. < 500 nM
6. < 500 nM
7. < 500 nM
8. < 500 nM

I have 4 compounds here; please give me Ki for each one.
1. CC(C)C(O)(C1CN(c2ccc(F)c(-c3n[nH]c4ncccc34)n2)CCN1)C(F)(F)F (stereo not shown)
2. CCC1(C)CN(c2ccc(C(F)(F)F)c(-c3n[nH]c4ncccc34)n2)CCC1N (stereo not shown)
3. Fc1ccc(N2CCNC(CC(F)(F)F)C2)nc1-c1n[nH]c2ncccc12 (stereo not shown)
4. CC(C)CC1(C(N)=O)CN(c2ccc(C(F)(F)F)c(-c3n[nH]c4ncccc34)n2)C1

1: < 2800 nM; 2: < 500 nM; 3: < 2800 nM; 4: > 1250 nM

I have 2 compounds here; please give me Ki for each one.
1. CC(C)CC1(C(F)(F)F)CN(c2ccc(C(F)(F)F)c(-c3n[nH]c4ncccc34)n2)CCC1N (stereo not shown)
2. CC[C@@H]1CN(c2cccc(-c3n[nH]c4ncccc34)n2)C[C@H](CC(C)C)N1

1: < 500 nM; 2: < 500 nM

###

- TESTED_SYSTEM: PKC delta kinase (Homo sapiens, UniProt Q05655)
- Sequence (Q05655 whole entry): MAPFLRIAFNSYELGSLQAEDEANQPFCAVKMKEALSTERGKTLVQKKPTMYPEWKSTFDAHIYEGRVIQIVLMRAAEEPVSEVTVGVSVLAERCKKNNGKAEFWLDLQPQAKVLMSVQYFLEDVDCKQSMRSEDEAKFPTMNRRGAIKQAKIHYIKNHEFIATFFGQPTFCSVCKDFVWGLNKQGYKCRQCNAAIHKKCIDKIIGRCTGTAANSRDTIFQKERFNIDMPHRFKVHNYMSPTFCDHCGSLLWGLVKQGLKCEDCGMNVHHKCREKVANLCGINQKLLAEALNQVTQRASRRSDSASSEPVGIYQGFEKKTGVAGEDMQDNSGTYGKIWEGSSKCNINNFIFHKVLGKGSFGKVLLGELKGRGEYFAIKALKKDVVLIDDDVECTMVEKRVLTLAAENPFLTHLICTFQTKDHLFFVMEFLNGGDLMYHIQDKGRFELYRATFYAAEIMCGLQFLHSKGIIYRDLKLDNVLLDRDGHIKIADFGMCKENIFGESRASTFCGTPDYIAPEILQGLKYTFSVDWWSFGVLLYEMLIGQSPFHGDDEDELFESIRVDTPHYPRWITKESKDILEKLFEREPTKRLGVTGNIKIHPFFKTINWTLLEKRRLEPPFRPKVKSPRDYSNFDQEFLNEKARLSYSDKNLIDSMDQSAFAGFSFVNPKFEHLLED
- ASSAY: PKC delta kinase inhibition, coupled-enzyme (NADH absorbance) assay, Ki
- Type: biochemical
- MEASUREMENT_CONTEXT: 150 μM ATP, 46 nM PKC delta kinase, 30° C.; read-out: Ki PKC delta
pKi: −log10 of the molar value.
ASSAY_METRIC: pKi

Here is how some compounds turned out for pKi.
>>> readout_value("CC(C)CC1(C)CN(c2cccc(-c3n[nH]c4ncccc34)n2)CCC1N (centres unmarked) [Compound 189]")
"> 7.30"
>>> readout_value("CCC1CN(c2ccc(C(F)(F)F)c(-c3n[nH]c4ncccc34)n2)CCC1C#N (centres unmarked) [Compound 406]")
"< 5.90"
>>> readout_value("CC(C)C(C)(O)C1CN(c2cc(C(F)(F)F)cc(-c3n[nH]c4ncccc34)n2)CCN1 (centres unmarked) [Compound 342]")
"< 5.90"
>>> readout_value("CC[C@H]1CN(c2ccc(C(F)(F)F)c(-c3n[nH]c4ncccc34)n2)CCN1 [Compound 75]")
"> 5.55"
>>> readout_value("NC[C@@H]1CCCN1c1ccc(F)c(-c2n[nH]c3ncccc23)n1 [Compound 355]")
"< 5.90"
>>> readout_value("NCC1CN(c2ccc(F)c(-c3n[nH]c4ncccc34)n2)C1 [Compound 387]")
"< 5.90"
>>> readout_value("NC1CCN(c2ccc(C(F)(F)F)c(-c3n[nH]c4ncccc34)n2)CC12CCCC2 (centres unmarked) [Compound 464]")
"> 6.30"

In the following, a different compound is considered.
Give pKi for OC1(c2cccc(-c3n[nH]c4ncccc34)n2)CCNCC1 [Compound 60]
> 6.30
